This section presents sequences with their documented MIC values.
- Test system: Stahylococcus aureus ATCC-29213
- Format: cell-based, Staphylococcus aureus
- TEST SETTINGS: ATCC-29213, 24 h
Where no end group is shown, it is not given here.
Give the quantity in µM, number only.

| RESIDUES | ASSAY READOUT | QUANTITATIVE READOUT |
| --- | --- | --- |
| AIPWSIWWHLLFKG [buCATHL4G] | MIC | 0.8 |
| RIRFPWPWRWPWWRRVRG [buCATHL4C] | MIC | 0.2 |
| RIRFPWPWRWPWWPRFRG [buCATHL4D] | MIC | 6 |
| GLPWILLRWLFFRG [buCATHL4A] | MIC | 3 |

Please examine the following record next.
Item AIPWSIWWRLLFKG [buCATHL4F] : provide MIC 6
